Where these numbers come from: paper PMC10432884

assay: MAD phase pharmacokinetics; format: in vivo, human; details: human, plasma, oral, 5 mg, C max, GeoMean, MAD 5 mg q.d., day 1
reported.endpoint: Cmax (µg/mL)
Just the number in µg/mL, nothing appended.

Query string: Item Fc1ccccc1Cc1nc(-c2nc(C(F)(F)F)n[nH]2)cn2ccnc12 : provide Cmax
Result string: 0.602

###

assay: MAD phase pharmacokinetics; assay type: in vivo, human; conditions: human, plasma, oral, 2 mg, T max, Median, MAD 2 mg q.d., day 1
reported.endpoint: Tmax (h)
Just the number in h, nothing appended.

Query string: Item Fc1ccccc1Cc1nc(-c2nc(C(F)(F)F)n[nH]2)cn2ccnc12 [zagociguat] : provide Tmax
Result string: 1

###

assay: MAD phase pharmacokinetics; assay type: in vivo, human; settings: human, plasma, oral, 2 mg, C trough, GeoMean, MAD 2 mg q.d., day 11
reported.endpoint: concentration at 11 day (ng/mL)
Just the number in ng/mL, nothing appended.

Query string: Item Fc1ccccc1Cc1nc(-c2nc(C(F)(F)F)n[nH]2)cn2ccnc12 : provide concentration at 11 day
Result string: 587

###

test: MAD phase pharmacokinetics; type: in vivo, human; details: human, plasma, oral, 15 mg, C max, GeoMean, MAD 15 mg q.d., day 14
reported.endpoint: Cmax
Write down the value, and be sure its unit follows.

Query string: Item Fc1ccccc1Cc1nc(-c2nc(C(F)(F)F)n[nH]2)cn2ccnc12 [zagociguat] : provide Cmax
Result string: 5850 ng/mL

###

assay: SAD phase pharmacokinetics; type: in vivo, human; details: human, plasma, oral, 20 mg, AUCinf, GeoMean, SAD 20 mg
reported.endpoint: AUC(0-inf) (µg·h/mL)
Just the number in µg·h/mL, nothing appended.

Query string: Item Fc1ccccc1Cc1nc(-c2nc(C(F)(F)F)n[nH]2)cn2ccnc12 [zagociguat] : provide AUC(0-inf)
Result string: 194

###

assay: SAD phase pharmacokinetics; assay type: in vivo, human; conditions: human, plasma, oral, 20 mg, C max, Median, SAD 20 mg
reported.endpoint: Cmax (ng/mL)
Just the number in ng/mL, nothing appended.

Query string: Item Fc1ccccc1Cc1nc(-c2nc(C(F)(F)F)n[nH]2)cn2ccnc12 : provide Cmax
Result string: 2260

###

experiment: MAD phase pharmacokinetics; assay type: in vivo, human; conditions: human, plasma, oral, 5 mg, C trough, GeoMean, MAD 5 mg q.d., day 14
reported.endpoint: concentration at 14 day (ng/mL)
Just the number in ng/mL, nothing appended.

Query string: Item Fc1ccccc1Cc1nc(-c2nc(C(F)(F)F)n[nH]2)cn2ccnc12 [zagociguat] : provide concentration at 14 day
Result string: 1540

###

assay: SAD phase pharmacokinetics; type: in vivo, human; settings: human, plasma, oral, 0.3 mg, T max, Median, SAD 0.3 mg
reported.endpoint: Tmax (min)
Just the number in min, nothing appended.

Query string: Item Fc1ccccc1Cc1nc(-c2nc(C(F)(F)F)n[nH]2)cn2ccnc12 : provide Tmax
Result string: 48

###

assay: SAD phase pharmacokinetics; assay type: in vivo, human; details: human, plasma, oral, 20 mg, T max, Median, SAD 20 mg
reported.endpoint: Tmax (h)
Just the number in h, nothing appended.

Query string: Item Fc1ccccc1Cc1nc(-c2nc(C(F)(F)F)n[nH]2)cn2ccnc12 : provide Tmax
Result string: 4

###

test: MAD phase pharmacokinetics; format: in vivo, human; conditions: human, plasma, oral, 2 mg, C trough, GeoMean, MAD 2 mg q.d., day 12
reported.endpoint: concentration at 12 day (µg/mL)
Just the number in µg/mL, nothing appended.

Query string: Item Fc1ccccc1Cc1nc(-c2nc(C(F)(F)F)n[nH]2)cn2ccnc12 [zagociguat] : provide concentration at 12 day
Result string: 0.593
